Would you mind telling me the reported cytotoxicity at 70.5 h of each entry?
- measurement_description: Human HepG2 cell viability assay in 384 well format
- Assay type: toxicity, cell-based
- Parameters: dose 125 nL, time 70.5 hour; concentration not given beside the values
- particulars: HepG2 cells, read-out: Inhibition
Units required after the number.

Input: Record request: cytotoxicity at 70.5 h value, item CCn1nc(C)cc1C(=O)NCc1noc(C(C)(C)C)n1
Output: -1.63%

Input: State the recorded cytotoxicity at 70.5 h for this entry: O=C(CCCOc1ccccc1Cl)N1CCCC(n2cncn2)C1 (stereo unspecified)
Output: 11%

Input: Entry CC(C)c1nc(CC(=O)Nc2nc(CN3CCCCCC3)cs2)cs1 has what cytotoxicity at 70.5 h?
Output: 16.6%

Input: cytotoxicity at 70.5 h lookup needed for CCCN(Cc1nccn1C)C(=O)c1cnn[nH]1 , thanks.
Output: 7.26%

Input: Need cytotoxicity at 70.5 h, item CN(C)C(=O)N1CCCC(C(=O)N(C)Cc2cnc(N)nc2)C1 (stereo unspecified)
Output: -10.7%

Input: Query (molecule): Cc1ccc2c(c1)N(C(=O)c1c[nH]c(C)cc1=O)CC(C)O2 (stereo unspecified) ; field requested: cytotoxicity at 70.5 h
Output: 28.6%

Input: // cytotoxicity at 70.5 h lookup, key: COC1CCN(CCNC(=O)NC(C)c2ccc(F)c(F)c2)CC1 (stereo unspecified)
Output: 23.5%

Input: Any idea what cytotoxicity at 70.5 h was measured for COc1ccccc1CN(Cc1nc(CC(C)C)no1)C1CC1 ?
Output: -14.2%

Input: Name the recorded cytotoxicity at 70.5 h for NC(=O)C1CCN(C(=O)NCCOc2ccc3c(c2)OCO3)C1 (stereo unspecified) .
Output: -8.31%

Input: Returns the measured cytotoxicity at 70.5 h for the input molecule. Input: Cc1noc(NC(=O)CCNC(=O)c2ccc(Br)cc2)n1
Output: 14.6%

Input: Name the reported cytotoxicity at 70.5 h value associated with the molecule N#CCSCCCN1CCN(C(=O)c2cccc(Cl)c2)CC1
Output: 2.68%

Input: Look up cytotoxicity at 70.5 h: COCCN1C[C@@H]2CN(C(=O)[C@H]3CCCO3)C[C@@H]2C1=O
Output: -15.9%

Input: For the molecule CC(O)CN1CCC(CNCc2cccc(OC(C)C)c2)CC1 (stereo unspecified) , what cytotoxicity at 70.5 h is on record?
Output: 47%

Input: For Cc1cc(C2CCC2)nc(NCC(C)(C)N2CCOCC2)n1 , what is its reported cytotoxicity at 70.5 h?
Output: 15.4%

Input: Field request: cytotoxicity at 70.5 h | item: COc1ccc(-c2ccc(C(=O)NCCCC(N)=O)c(F)c2)c(F)c1
Output: -3.05%

Input: I am curious: what cytotoxicity at 70.5 h value has been reported for CCc1nc(C)c(C(=O)NCCn2nc3ccccn3c2=O)s1 ?
Output: -3.88%

----------
Give measured cytotoxicity at 70.5 h for each item. Keep answers brief.
- measurement_description: Human HepG2 cell viability assay in 384 well format
- Assay type: toxicity, cell-based
- Design: dose 125 nL, time 70.5 hour; concentration not given beside the values
- particulars: HepG2 cells, read-out: Inhibition
# output: number + unit

Input: Request the reported cytotoxicity at 70.5 h associated with CC(C)NC(=O)NCc1ccnc(N(C)C)n1
Output: -6.75%

Input: // lookup cytotoxicity at 70.5 h for Fc1ccc(OCC2CCCO2)c(NCc2cn3cccnc3n2)c1 (configuration not stated)
Output: 8.09%

Input: Which cytotoxicity at 70.5 h reading was recorded for the compound CCN(C(c1ccc(OC)cc1)c1cccnc1)S(C)(=O)=O (configuration not stated) ?
Output: -9.72%

Input: I have this compound here, CCN1CCC2(C=C(C(=O)N(C)C)c3ccccc32)CC1 , and I need its recorded cytotoxicity at 70.5 h.
Output: 0.372%

Input: Endpoint output: cytotoxicity at 70.5 h of Cc1cc(NCCc2c(C)n[nH]c2C)nc(-c2cccnc2)n1 . Value?
Output: 20.8%

Input: I'd like to know its cytotoxicity at 70.5 h. The compound in question is CN1CCC(N(C)C(=O)CCc2ccc(F)c(F)c2)C1=O (configuration not stated)
Output: -6.34%

Input: Please give the measured cytotoxicity at 70.5 h for this compound: O=S(=O)(Cc1ccccc1Cl)N1CCC2(CC1)OCCS2
Output: -5.23%
